ASSAY_NAME: in vivo
RUN_PARAMETERS: rat, po, 100 mg/kg
OBSERVATION_TYPE: dose excreted at 24 h (%)
Could you give me the number in %? Just the number is fine.

# input compound: O=C(O)CO/N=C(\C(=O)NC1C(=O)N2C(C(=O)O)=C(CSc3ccc4nnnn4n3)CSC12)c1cscn1 (stereo not shown) ; wanted: its dose excreted at 24 h 8.97
